Biological target: human GR (Homo sapiens, UniProt P04150)
Sequence (P04150 whole entry): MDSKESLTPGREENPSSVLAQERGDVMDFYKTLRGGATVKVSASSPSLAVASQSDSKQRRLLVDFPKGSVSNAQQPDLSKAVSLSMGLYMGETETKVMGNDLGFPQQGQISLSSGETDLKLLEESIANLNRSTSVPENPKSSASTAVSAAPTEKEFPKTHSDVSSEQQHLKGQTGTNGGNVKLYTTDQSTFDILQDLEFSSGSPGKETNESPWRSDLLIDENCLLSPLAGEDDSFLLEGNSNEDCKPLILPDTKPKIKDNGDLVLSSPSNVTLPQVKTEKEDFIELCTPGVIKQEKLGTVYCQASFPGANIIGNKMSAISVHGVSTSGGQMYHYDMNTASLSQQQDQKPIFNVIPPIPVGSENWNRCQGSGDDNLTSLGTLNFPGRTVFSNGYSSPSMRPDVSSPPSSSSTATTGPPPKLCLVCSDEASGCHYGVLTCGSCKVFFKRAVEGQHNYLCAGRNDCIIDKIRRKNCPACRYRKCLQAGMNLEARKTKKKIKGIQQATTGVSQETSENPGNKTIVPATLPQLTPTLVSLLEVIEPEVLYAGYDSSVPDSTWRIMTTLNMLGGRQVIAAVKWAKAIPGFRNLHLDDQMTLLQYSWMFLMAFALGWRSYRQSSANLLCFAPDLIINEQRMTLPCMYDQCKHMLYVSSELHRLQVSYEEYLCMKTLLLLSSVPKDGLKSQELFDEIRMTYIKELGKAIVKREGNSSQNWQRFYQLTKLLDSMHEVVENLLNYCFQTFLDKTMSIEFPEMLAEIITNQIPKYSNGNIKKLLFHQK
Assay: Transrepression Assay (GITAR), TNFα-β-lactamase reporter in U937 cells
Type: cell-based
Parameters: U937 cells contain an endogenous glucocorticoid receptor (GR); endogenous in cells; host or cells: U937 cells stably transfected with the TNF-alpha promoter/beta-lactamase reporter
Conditions: U937 cells; inflection point; read-out: Transrepression U937 Cells GITAR IP
readout: pEC50
Answers are plain numbers, as −log10 of the molar value.

Guide cases for pEC50, answers given:
| compound | recorded-number |
| --- | --- |
| C[C@]12Cc3cnn(-c4ccc(F)cc4)c3C=C1CC[C@@H]2CN(CC1CC1)S(=O)(=O)Cc1ccccc1 | 6.44 |
| C[C@]12Cc3cnn(-c4ccc(F)cc4)c3C=C1CC[C@@H]2CN(CC(O)c1cccnc1)S(=O)(=O)CC(F)(F)F (stereo partly drawn) | 6.65 |
| Cc1noc(C)c1S(=O)(=O)N(CC1CC1)C[C@H]1CCC2=Cc3c(cnn3-c3ccc(F)cc3)C[C@@]21C | 6.69 |
| Cc1noc(C)c1S(=O)(=O)N(CC1CCCO1)C[C@H]1CCC2=Cc3c(cnn3-c3ccc(F)cc3)C[C@@]21C (stereo partly drawn) | 6.12 |
| CN1CCOc2cc(S(=O)(=O)N(CC3CC3)C[C@H]3CCC4=Cc5c(cnn5-c5ccc(F)cc5)C[C@@]43C)ccc21 | 6.37 |
| C[C@]12Cc3cnn(-c4ccc(F)cc4)c3C=C1CC[C@@H]2CN(CC(O)c1ccccn1)S(=O)(=O)CC(F)(F)F (stereo partly drawn) | 6.85 |
| C[C@]12Cc3cnn(-c4ccc(F)cc4)c3C=C1CC[C@@H]2CN(CCc1ccccn1)S(=O)(=O)CCN1C(=O)c2ccccc2C1=O | 5.99 |
| C[C@]12Cc3cnn(-c4ccc(F)cc4)c3C=C1CC[C@@H]2CN(CCO)S(=O)(=O)c1ccc(F)c(F)c1 | 6.27 |

Now consider the entry below.
Q) Query (compound): CCCS(=O)(=O)N(CC(O)C(F)(F)F)C[C@H]1CCC2=Cc3c(cnn3-c3ccc(F)cc3)C[C@@]21C (stereo partly drawn) ; field requested: pEC50
A) 6.07

###

For each of the compounds below, state its GITAR > GRAMM % SEP.
Target: UniProt:P04150
Assay: Transrepression Assay (GITAR), TNFα-β-lactamase reporter in U937 cells
Assay type: cell-based
Parameters: U937 cells contain an endogenous glucocorticoid receptor (GR); endogenous in cells; host or cells: U937 cells stably transfected with the TNF-alpha promoter/beta-lactamase reporter
Conditions: GITAR Emax minus GRAMMER Emax
Excerpt: This assay assesses the ability of test compounds to control transcription from the TNFα-β-lactamase reporter gene in U937 cells, a human myelomonocytic leukemia cell line that naturally expresses the human GR. The assay measures compound dependent-repression of the TNFa promoter linked to a reporter gene. The human U937 cells that had been stablely transfected with the TNF-α promoter driving β-lactamase are used for this assay. U937 cells contain an endogenous glucocorticoid receptor (GR). […]
Numbers only, in %.

Dear reader, for each entry below, please note its GITAR > GRAMM % SEP.
1. C[C@]12Cc3cnn(-c4ccc(F)cc4)c3C=C1CC[C@@H]2CN(CC#N)S(=O)(=O)c1cccc2ccccc12
2. C[C@]12Cc3cnn(-c4ccc(F)cc4)c3C=C1CC[C@@H]2CN(CCO)S(=O)(=O)c1ccccc1C(F)(F)F
3. CC(C1CCC2=Cc3c(cnn3-c3ccc(F)cc3)C[C@@]21C)N(CCc1ccccc1F)S(=O)(=O)CC(F)(F)F (stereo partly shown)
4. C[C@]12Cc3cnn(-c4ccc(F)cc4)c3C=C1CC[C@@H]2CN(CCc1ccccc1F)S(=O)(=O)C1CC1

A)
16.6
15.1
20.8
32.6
